- System: RXF 393 renal
- ASSAY PROCEDURE: NCI tumour cell line growth inhibition, 48 h; in the data active = GI50 below about 0.43 µM; inactive = the rest
Classes used: yes (active), no (inactive)

{"columns": ["GIVEN SMILES", "MEASURED ON", "LABEL"],
 "data": [
  ["Cc1cn2c(=O)n(c1=O)Cc1ccccc1C2", "RXF 393 renal", "no"],
  ["OCc1ccc(Oc2c3ccccc3nc3occc23)cc1", "RXF 393 renal", "no"],
  ["O=C(Nc1cccc(-n2ccc3c(NC(=O)c4ccccc4)nccc32)c1)c1cc(N2CCOCC2)cc(C(F)(F)F)c1", "RXF 393 renal", "yes"]
]}

----------
- Test system: T-47D breast
- ASSAY PROCEDURE: NCI tumour cell line growth inhibition, 48 h
Measured TGI values are reported for all entries that follow.

{"columns": ["MOLECULE", "TGI"],
 "data": [
  ["C/C(N=Nc1nc2ccccc2o1)=C1/C=CC=CN1O", "> 100 µM"],
  ["Cc1ccc2nc(N/N=C/c3cccc(C)n3)cc(C)c2c1", "38.7 µM"],
  ["Oc1ccc(CN(Cc2ccc(C(F)(F)F)cc2)Cc2ccc(O)c3ncccc23)c2cccnc12", "> 100 µM"],
  ["N#Cc1nc(/C=C/c2ccccc2)oc1N", "> 100 µM"],
  ["O=C(NC1(C(=O)O)CC1c1ccccc1)c1ccccc1 (stereo unspecified)", "> 100 µM"],
  ["COc1ccc(-c2ccccc2)cc1-c1c(Nc2cc(Cl)cc(Cl)c2O)c(=O)c1=O", "> 50 µM"],
  ["COc1ccc(-c2csc3c2-n2cccc2C3=O)cc1O", "> 100 µM"],
  ["CN(C)S(=O)(=O)c1ccc(Nc2ccc(O)c3c2C(=O)c2c([N+](=O)[O-])ccc(O)c2C3=O)cc1", "> 100 µM"],
  ["CC1(C)[C@@H]2C[C@H]1C(Cc1cccc(C[C@H]3c4cc(-c5ccccn5)ncc4[C@H]4C[C@@H]3C4(C)C)c1)c1cc(-c3ccccn3)ncc12 (stereo partly specified)", "> 100 µM"],
  ["COc1cc(-c2nc3nc(N4CCN(C)CC4)ccc3[nH]2)c(OC)c2[nH]c(COC(C)=O)nc12", "> 100 µM"],
  ["O=C(O)c1ccc(Nc2nc3ccccc3nc2C(=O)O)cc1", "> 100 µM"]
]}

----------
- System: SF-539 CNS
- ASSAY PROCEDURE: NCI tumour cell line growth inhibition, 48 h

{"columns": ["COMPOUND", "TGI"],
 "data": [
  ["NC(=O)NCCSC1CCCCC1O (stereo unspecified)", "> 100 µM"],
  ["O=[N+]([O-])c1ccc(N=Nc2c(O)[nH]c3ccccc23)cc1", "9.36 µM"],
  ["CN1CCC(n2[nH]c(-c3ccccc3)c(Cc3ccccc3)c2=O)CC1", "> 100 µM"],
  ["C=C1C(=O)O[C@H]2C[C@@H]1CCC1(C)OC1CC/C(C)=C/CC[C@H]2C (stereo partly specified)", "50.6 µM"],
  ["Cn1c(=O)oc2cc(C3CCC(=O)N3Cc3ccc(Cl)cc3)ccc21 (stereo unspecified)", "> 100 µM"],
  ["CC1(C)N[P+]2(Nc3ccccc3O2)OC1=O (stereo unspecified)", "> 100 µM"]
]}

----------
- System: SN12C renal
- ASSAY PROCEDURE: NCI tumour cell line growth inhibition, 48 h
Record rule met whenever TGI is at 20 µM or higher; record rule not met when lower.

{"columns": ["COMPOUND", "LABEL"],
 "data": [
  ["CC(=O)NC1=CC(=O)c2cc(C)cc(O)c2C1=O", "rule not met"],
  ["COc1ccc(/C=C\\c2cc(OC)c(OC)c(OC)c2)cc1OCC(=O)Nc1nc2ccc(OC(F)(F)F)cc2s1", "rule met"],
  ["N#Cc1c(N2CCN(c3ccc([N+](=O)[O-])cc3)CC2)[n+](=O)c2ccc(Cl)cc2n1[O-]", "rule not met"],
  ["O=C(O)/C=C/C(=O)O", "rule met"],
  ["O=[N+]([O-])c1cccc(-c2cc(-c3cc(Br)ccc3O)[nH]n2)c1", "rule not met"],
  ["C[C@H](CCC1=NCCN1)[C@H]1CC[C@H]2[C@@H]3CC[C@@H]4C[C@H](O)CC[C@]4(C)[C@H]3C[C@H](O)[C@]12C", "rule met"],
  ["CCOc1cc(C2SCC(=O)N2c2nc3cc4sc(N5C(=O)CSC5c5ccc(O)c(OCC)c5)nc4cc3s2)ccc1O (centres undefined)", "rule met"],
  ["O=c1[nH]c2ccccc2c2oc(-c3ccccc3)nc12", "rule met"],
  ["CC(=N\\N=C\\c1ccccn1)/C(C)=N/N=C(C)/C(C)=N/N=C(C)/C(C)=N/N=C/c1ccccn1", "rule met"],
  ["CC1(C)Cc2c(Br)c(Br)c(Br)c(OCC(O)CN3CCOCC3)c2O1 (centres undefined)", "rule met"],
  ["CC(C)(C)c1cc(C2COC(=O)COCC(=O)OCCOCCOCCO2)cc(C(C)(C)C)c1O (centres undefined)", "rule met"],
  ["CC[C@@]1(O)C(=O)OCc2c1cc1n(c2=O)Cc2cc3c(NC(=O)CN)cccc3nc2-1", "rule not met"],
  ["COC(=O)C1=Cc2c(cc(OC)c(OC)c2OC)[C@H](c2ccc(OC)c(OC)c2OC)C1C(=O)OC (some centres undefined)", "rule met"],
  ["C/C(N=Nc1nc2ccccc2o1)=C1/C=CC=CN1O", "rule met"],
  ["COc1ccc2[nH]cc(-c3nc(-c4c[nH]c5ccncc45)cs3)c2c1", "rule not met"],
  ["C=C(C)[C@@H]1CC[C@]2(C(=O)NCCNCCNCCN)CC[C@]3(C)[C@H](CC[C@@H]4[C@@]5(C)CCC(=O)C(C)(C)[C@@H]5CC[C@]43C)[C@@H]12", "rule not met"],
  ["CC(C)C1=CC23CCC4C(C)(C(=O)O)CCCC4(C)C2CC1C(C(=O)O)C3C(=O)O (centres undefined)", "rule met"],
  ["COc1ccc(-n2c3c(c4c(CN(C)C)c(O)c(C)cc42)CCc2ccccc2C3=O)cc1", "rule met"],
  ["CN1CC2CC(C1)c1cccc(=O)n1C2 (centres undefined)", "rule met"]
]}

----------
- Tested on: SR leukemia
- ASSAY PROCEDURE: NCI tumour cell line growth inhibition, 48 h; in the data active = GI50 below about 0.43 µM; inactive = the rest
Classes used: YES for active, NO for inactive

{"columns": ["GIVEN SMILES", "LABEL"],
 "data": [
  ["COc1ccc(-c2ccccc2)cc1-c1c(Nc2cc(Cl)cc(Cl)c2O)c(=O)c1=O", "NO"],
  ["CCN1CCC(CC(=O)Nc2n[nH]c3nc(-c4cccs4)c(Br)cc23)CC1", "NO"],
  ["COc1ccc(C2=C(c3cc(OC)c(OC)c(OC)c3)C(=O)OC2)cc1OC", "YES"],
  ["O=[N+]([O-])/C=C/c1ccc([N+](=O)[O-])cc1", "NO"],
  ["COc1cc2c(cc1OCCCN1CCN(c3cc(=O)oc4c(C)c(OC)ccc34)CC1)N=C[C@@H]1CCCN1C2=O", "YES"]
]}

----------
- System: UACC-62 melanoma
- ASSAY PROCEDURE: NCI tumour cell line growth inhibition, 48 h

{"columns": ["GIVEN SMILES", "MEASURED ON", "TGI"],
 "data": [
  ["COc1ccc(-c2cc(-c3nnc(SCC(=O)Nc4ccc(C(C)=O)cc4)o3)c3ccccc3n2)cc1", "UACC-62 melanoma", "> 100 µM"],
  ["CC[C@@]1(O)C(=O)OCc2c1cc1n(c2=O)Cc2cc3c(NC(=O)CN)cccc3nc2-1", "UACC-62 melanoma", "7.42 µM"],
  ["C[Si]12OCCCN(CCO1)CCO2", "UACC-62 melanoma", "> 100 µM"],
  ["CCOC(=O)N(C)C1(c2ccccc2)CCN(CCCC(=O)c2ccc(F)cc2)CC1", "UACC-62 melanoma", "> 100 µM"],
  ["O=C1O[C@]2(c3ccccc3)C(c3ccccc3)=C[C@]2(C(=O)c2ccccc2)C1=O", "UACC-62 melanoma", "> 100 µM"]
]}

----------
- System: NCI-H522 lung
- ASSAY PROCEDURE: NCI tumour cell line growth inhibition, 48 h

{"columns": ["MOLECULE", "TGI"],
 "data": [
  ["COc1cc(C(SCc2ccccc2)SCc2ccccc2)ccc1O", "> 10 µM"],
  ["NC(=O)c1c2c(cc3c(=O)c4ccccc4[nH]c13)CCCC2", "> 100 µM"],
  ["NC(=O)CS(=O)CC(N)C(=O)O (stereo not given)", "> 100 µM"],
  ["Nc1nc(SCCC/C=C/I)nc2c1ncn2C1OC(CO)C(O)C1O (stereo not given)", "> 202 µM"],
  ["CCC[CH2][Sn]1([CH2]CCC)[O]C(=O)CN=Cc2ccccc2[O]1", "0.173 µM"]
]}

Entry source: PubChem BioAssay (NCI)
